Overview of recorded probability that this protein is enriched for various binders
# ASSAYED_SYSTEM: APP-TAP-AICD (human, UniProt P05067 18-695)
# METHOD_NOTES: streptavidin purification of APP-TAP-AICD from brain homogenate; LTQ-FT semiquantitative method, transgenic mouse 75 vs control mouse 72
Please respond with just the number, no unit label.

• ATP synthase e chain, mitochondrial (enzyme, mouse, UniProt Q06185 2-71, looked up, also called epsilon chain) VPPVQVSPLIKFGRYSALIIGMAYGAKRYSYLKPRAEEERRIAAEEKKRLDELKRIERELAEAQDDSILK = 0.88

Q: Can you look up the measured probability that this protein is enriched of Peroxiredoxin-5, mitochondrial precursor (Prx-V) (enzyme, mouse, UniProt P99029 49-210, looked up, also called PRDX5_MOUSE) MAPIKVGDAIPSVEVFEGEPGKKVNLAELFKGKKGVLFGVPGAFTPGCSKTHLPGFVEQAGALKAKGAQVVACLSVNDVFVIEEWGRAHQAEGKVRLLADPTGAFGKATDLLLDDSLVSLFGNRRLKRFSMVIDNGIVKALNVEPDGTGLTCSLAPNILSQL for me?
Result: 1

Q: Can you look up the measured probability that this protein is enriched of 14-3-3 protein zeta/delta (Protein kinase C inhibitor protein-1) (KCIP-1) (SEZ-2) (other, mouse, UniProt P63101 1-245, looked up) MDKNELVQKAKLAEQAERYDDMAACMKSVTEQGAELSNEERNLLSVAYKNVVGARRSSWRVVSSIEQKTEGAEKKQQMAREYREKIETELRDICNDVLSLLEKFLIPNASQPESKVFYLKMKGDYYRYLAEVAAGDDKKGIVDQSQQAYQEAFEISKKEMQPTHPIRLGLALNFSVFYYEILNSPEKACSLAKTAFDEAIAELDTLSEESYKDSTLIMQLLRDNLTLWTSDTQGDEAEAGEGGEN for me?
Result: 0.83

Q: Can you look up the measured probability that this protein is enriched of SH3-containing GRB2-like protein 1 (SH3 domain protein 2B) (SH3p8) (other, mouse, UniProt Q62419 1-368, looked up, also called SH3G1_MOUSE) MSVAGLKKQFYKASQLVSEKVGGAEGTKLDDDFKDMEKKVDVTSKAVAEVLVRTIEYLQPNPASRAKLTMLNTVSKIRGQVKNPGYPQSEGLLGECMVRHGKELGGESNFGDALLDAGESMKRLAEVKDSLDIEVKQNFIDPLQNLCDKDLKEIQHHLKKLEGRRLDFDYKKKRQGKIPDEELRQALEKFEESKEVAETSMHNLLETDIEQVSQLSALVDAQLDYHRQAVQILEELADKLKRRVREASSRPKREFKPRPREPFELGELEQPNGGFPCAPAPKITASSSFRSSDKPIRMPSKSMPPLDQPSCKALYDFEPENDGELGFREGDLITLTNQIDENWYEGMLHGQSGFFPLSYVQVLVPLPQ for me?
Result: 1

Q: Can you look up the measured probability that this protein is enriched of Neuronal membrane glycoprotein M6-b (M6b) (other, mouse, UniProt P35803 1-328, looked up, also called Proteolipid protein PLP/dm-20) MKPAMETAAEENTEQSQERKVNSRAEMEIGRYHWMYPGSKNHQYRPVPNLGDRAGPLSSPGCFECCIKCLGGVPYASLVATILCFSGVALFCGCGHVALAGTVAILEQHFSTNTSDHALLSEVIQLMQYVIYGIASFFFLYGIILLAEGFYTTSAVKELHGEFKTTACGRCISGMFVFLTYVLGVAWLGVFGFSAVPVFMFYNIWSTCEVIKSPQSNGTSGVEQICVDVRQYGIIPWNAFPGKICGSALENICNTNEFYMSYHLFIVACAGAGATVIALIHFLMILSSNWAYLKDASKMQAYQDIKAKEEQELQDIQSRSKEQLNSYT for me?
Result: 0.87

Q: Can you look up the measured probability that this protein is enriched of 14-3-3 protein eta (other, mouse, UniProt P68510 2-246, looked up, also called 14-3-3 η) GDREQLLQRARLAEQAERYDDMASAMKAVTELNEPLSNEDRNLLSVAYKNVVGARRSSWRVISSIEQKTMADGNEKKLEKVKAYREKIEKELETVCNDVLALLDKFLIKNCNDFQYESKVFYLKMKGDYYRYLAEVASGEKKNSVVEASEAAYKEAFEISKEHMQPTHPIRLGLALNFSVFYYEIQNAPEQACLLAKQAFDDAIAELDTLNEDSYKDSTLIMQLLRDNLTLWTSDQQDEEAGEGN for me?
Result: 1
